Measurement Target: CYP2A6dH (Homo sapiens, UniProt P11509, Q458E)
Construct: expressing residues 29-494 of the catalytic domain without internal modifications; 4xHis (C)
Sequence (P11509 with tags, fused parts or gaps Q458E): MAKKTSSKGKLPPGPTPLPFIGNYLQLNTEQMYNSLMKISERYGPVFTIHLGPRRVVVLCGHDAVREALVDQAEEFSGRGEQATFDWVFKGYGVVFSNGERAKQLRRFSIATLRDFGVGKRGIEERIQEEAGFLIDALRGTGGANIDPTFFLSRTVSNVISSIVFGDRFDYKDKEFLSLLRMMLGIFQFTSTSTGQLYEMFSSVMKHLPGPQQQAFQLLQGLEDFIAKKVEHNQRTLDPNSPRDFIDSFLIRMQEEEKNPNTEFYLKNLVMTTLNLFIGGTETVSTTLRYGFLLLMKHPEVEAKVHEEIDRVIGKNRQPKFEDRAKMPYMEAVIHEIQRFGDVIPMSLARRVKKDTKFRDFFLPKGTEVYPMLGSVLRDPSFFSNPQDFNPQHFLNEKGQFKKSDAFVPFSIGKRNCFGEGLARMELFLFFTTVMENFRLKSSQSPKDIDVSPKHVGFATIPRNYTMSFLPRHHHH
Assay Text: binding constants by visible difference spectroscopy (low spin to high spin conversion)
Study Conditions: substrate dependent conversion to high spin ferric heme protein; read-out: Dissociation constant for binding to purified CYP2A6dH
pKd: −log10 of the molar value.
Assay Metric: pKd

[[record]]
compound = "O=c1ccc2ccccc2o1 [coumarin, 1,2-benzopyrone]"
measurement_target = "CYP2A6dH (Homo sapiens, UniProt P11509, Q458E)"
assay_metric = "pKd"
observed_measurement = 6.57


Reference source: patent US8076457B2
